Measured IC50, listed per entry for reference.
molecular target: polo-box domain (PBD) of polo-like kinase 3 (PLK3) (UniProt Q9H4B4); assay: fluorescence polarization competition, displacement of tracer peptide from PLK3 PBD
Sequence (Q9H4B4 335-646 limits assumed): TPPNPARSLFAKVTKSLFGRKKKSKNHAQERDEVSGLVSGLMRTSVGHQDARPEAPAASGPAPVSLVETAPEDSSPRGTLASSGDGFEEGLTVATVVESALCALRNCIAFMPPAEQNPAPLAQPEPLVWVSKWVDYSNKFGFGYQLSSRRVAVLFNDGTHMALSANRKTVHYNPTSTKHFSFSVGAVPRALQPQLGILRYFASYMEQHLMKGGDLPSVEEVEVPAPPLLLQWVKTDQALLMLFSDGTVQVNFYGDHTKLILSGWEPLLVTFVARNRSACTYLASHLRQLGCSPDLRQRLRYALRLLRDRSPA
Square brackets hold non-standard residues; d marks the D form. Ends that are not written are not given here. * marks the point of attachment. Benzoyl(4-octyl) = CCCCCCCCc1ccc(C(=O)*)cc1; pT = C[C@@H](OP(=O)(O)O)[C@H](N)C(=O)O
# output: bare number, implied unit µM

S[pT]AI (also: 4-octyl R1 group on C-terminus, 'C-terminal amidated octyl', terminal chemistry unclear) [Compound No. 17, 4-octyl S[pT]AI (SEQ ID NO: 13), R1 group on the C-terminal]    117

Supply reported IC50 belonging to this binder: S[pT]AI (also: 4-nonyl R1 group on C-terminus, 'C-terminal amidated nonyl', terminal chemistry unclear) [Compound No. 18, 4-nonyl S[pT]AI (SEQ ID NO: 13), R1 group on the C-terminal]
95.9

Please list IC50 recorded for the binder {Benzoyl(4-octyl)}-S[pT]AI [Compound No. 15, 4-octylbenzamide N-capped S[pT]AI (SEQ ID NO: 13)]
153
